Exercise: for every item that follows, state its recorded Duration.
tested on: Rattus norvegicus; test: Time from onset of action until significant (i.e., >=30%) inhibition of pressor response is no longer observed, at 1 (mg/kg) intravenous dose; assay type: functional

Quick one: Duration of CCCCc1nn(-c2ccccc2C(F)(F)F)c(=O)n1Cc1ccc(-c2ccccc2S(=O)(=O)NC(=O)C(C)C)cc1 ?
>6 h

Look up Duration for this molecule: CCCCc1nn(-c2ccccc2C(F)(F)F)c(=O)n1Cc1ccc(-c2ccccc2S(=O)(=O)NC(=O)C2CC2(F)F)cc1 (centres undefined)
>5 h

Given the molecule CCCCc1nn(-c2ccccc2C(F)(F)F)c(=O)n1Cc1ccc(-c2ccccc2S(=O)(=O)NC(=O)c2ccco2)cc1 , what is its reported Duration?
>6 h

For the molecule CCCCc1nn(-c2ccccc2C(F)(F)F)c(=O)n1Cc1ccc(-c2ccccc2S(=O)(=O)NC(=O)OCC(C)C)cc1 , what Duration is on record?
>6 h
